Measured values drawn from patent US20240083872A1 for this set.

# experimentalTarget: human recombinant 5-HT2A receptor (Homo sapiens (Human))
# Sequence (P28223 whole entry): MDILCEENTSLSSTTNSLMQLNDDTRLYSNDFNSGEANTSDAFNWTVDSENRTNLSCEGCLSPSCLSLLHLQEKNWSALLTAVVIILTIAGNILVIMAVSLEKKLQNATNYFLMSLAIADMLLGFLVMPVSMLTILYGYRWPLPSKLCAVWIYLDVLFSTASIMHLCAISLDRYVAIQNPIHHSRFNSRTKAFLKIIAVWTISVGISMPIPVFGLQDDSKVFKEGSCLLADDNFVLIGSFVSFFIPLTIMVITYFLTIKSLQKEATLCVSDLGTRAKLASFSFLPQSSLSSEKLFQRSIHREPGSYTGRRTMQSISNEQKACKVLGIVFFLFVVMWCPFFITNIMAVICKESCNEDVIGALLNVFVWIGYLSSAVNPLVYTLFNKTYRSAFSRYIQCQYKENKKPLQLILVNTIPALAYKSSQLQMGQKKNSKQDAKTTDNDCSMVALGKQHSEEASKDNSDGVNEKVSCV
# assaySummary: 5-HT2A receptor binding inhibition test ([3H]-Ketanserin)
# conditionNotes: Jump-In HEK cell membrane, read-out: human serotonin 5-HT2A receptor binding activity, Ki value
Can you tell me Ki for the items I'm about to list?
One number for each entry, in nM.

Examples with answers:
                               linenotation  measuredattribute  unitstring  numericresult
0  Cc1ccc(CN(Cc2ccc(OCC(C)C)cc2)C(=O)NC2CCN(C)CC2)nc1                 Ki          nM          0.709
1  Cc1nc(CN(Cc2ccc(CCC(F)(F)F)cc2F)C(=O)NC2CCN(C)CC2)co1                 Ki          nM          0.952
2  CCCc1ccc(CN(Cc2coc(C)n2)C(=O)NC2CCN(C)CC2)cc1F                 Ki          nM          0.549

Given the entry Cc1nc(CN(Cc2ccc(OCC(C)C)cc2F)C(=O)NC2CCN(C)CC2)co1 , report its measured Ki.
0.82
